Sequence of the target: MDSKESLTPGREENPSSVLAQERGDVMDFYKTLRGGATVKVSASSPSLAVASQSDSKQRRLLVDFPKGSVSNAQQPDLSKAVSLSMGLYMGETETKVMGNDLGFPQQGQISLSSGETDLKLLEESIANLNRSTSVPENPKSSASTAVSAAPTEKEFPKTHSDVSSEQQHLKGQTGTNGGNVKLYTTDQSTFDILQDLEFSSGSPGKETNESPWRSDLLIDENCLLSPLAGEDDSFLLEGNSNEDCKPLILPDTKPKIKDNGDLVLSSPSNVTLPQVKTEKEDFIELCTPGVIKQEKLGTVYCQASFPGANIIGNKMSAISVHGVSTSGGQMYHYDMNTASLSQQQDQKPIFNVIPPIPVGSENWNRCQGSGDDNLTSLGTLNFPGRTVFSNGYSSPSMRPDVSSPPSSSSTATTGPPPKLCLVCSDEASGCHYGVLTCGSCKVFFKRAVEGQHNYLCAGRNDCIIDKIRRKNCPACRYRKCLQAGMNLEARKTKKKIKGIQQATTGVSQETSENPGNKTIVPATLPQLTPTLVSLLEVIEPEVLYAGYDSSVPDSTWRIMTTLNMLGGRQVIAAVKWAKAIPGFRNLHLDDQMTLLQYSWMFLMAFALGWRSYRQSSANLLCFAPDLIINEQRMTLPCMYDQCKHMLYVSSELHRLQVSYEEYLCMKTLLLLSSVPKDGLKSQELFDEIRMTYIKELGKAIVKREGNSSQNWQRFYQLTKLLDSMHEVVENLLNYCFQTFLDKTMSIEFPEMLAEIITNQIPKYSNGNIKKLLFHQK
Quick reference for pIC50 among some compounds
Please note pIC50 is a logarithmic value: minus log10 of concentration in mol/L. Answer with that number alone.

{"columns": ["COMPOUND", "NUMERIC RESULT"],
 "data": [
  ["Cc1cc2c(cnn2-c2ccc(=O)n(C)c2)cc1C1(Cc2ccccc2)CCN(S(=O)(=O)c2cnn(C(C)C)n2)C1 (stereo not drawn)", 7.92],
  ["CCCn1cc(S(=O)(=O)N2CCC(Cc3ccccn3)(c3cc4cnn(-c5ccc(F)cc5)c4cc3C)C2)cn1 (stereo not drawn)", 7.89]
]}

# next compound below
Prompt: Find the measured pIC50 of Cc1cc2c(cnn2-c2ccc(F)cc2)cc1C1(Cc2ccccc2)CC(O)N(Cc2ccccc2)C1=O (stereo not drawn) and report it.
Completion: 6.74

Reference source: BindingDB's records for patent US11787780
